Experiment: in vivo
Set-up: species or system BALB/C nu/nu mice
Conditions: BALB/C nu/nu, mouse, iv, 40 pmol, total radioactivity, Blood uptake
measured-attribute: tissue uptake at 4 h (%ID/g)
Supply the numeric figure in %ID/g, leaving out any unit text.

Query: Output tissue uptake at 4 h of CC(C)C[C@H](NC(=O)C[C@H](O)[C@H](CC(C)C)NC(=O)[C@H](Cc1c[nH]cn1)NC(=O)CN(C)C(=O)[C@@H](NC(=O)[C@H](C)NC(=O)[C@H](Cc1c[nH]c2ccccc12)NC(=O)[C@H](CCC(N)=O)NC(=O)[C@@H](Cc1ccccc1)NC(=O)COCCOCCNC(=O)CCC(C(=O)O)N1CCN(CC(=O)O)CCN(CC(=O)O)CCN(CC(=O)O)CC1)C(C)C)C(N)=O (stereo partly shown) [[^111In]In-AU-RM26-M1, [^111In]In-DOTAGA-PEG2-[Sar^11]RM26, metal not drawn, reference compound]
Response: 0.04

----------
Assay: in vivo
Parameters: species or system BALB/C nu/nu mice
Details: BALB/C nu/nu, mouse, iv, 40 pmol, total radioactivity, Liver uptake
Starred links: 1 amine or outer side, 2 acyl side, 3 side chain; linkers in the order of their positions; H or OH if unused. Non-standard residues stand in square brackets, D forms with d. Residues, ends and D or L forms follow the SMILES beside them. *: point of attachment. DOTAGA = O=C(O)CN1CCN(CC(=O)O)CCN(C(CCC(=O)*)C(=O)O)CCN(CC(=O)O)CC1; Sta = CC(C)C[C@H](N)[C@@H](O)CC(=O)O; X1 = O=C(CN1CCC(N[*:1])CC1)[*:2]; Sar = CNCC(=O)O
The entries below come with measured tissue uptake at 4 h values attached.
Supply the numeric figure in %ID/g, leaving out any unit text.

In the examples that follow, each entry is paired with its recorded tissue uptake at 4 h.
compound	tissue uptake at 4 h, %ID/g
CC(C)C[C@H](NC(=O)C[C@H](O)[C@H](CC(C)C)NC(=O)[C@H](Cc1c[nH]cn1)NC(=O)CN(C)C(=O)[C@@H](NC(=O)[C@H](C)NC(=O)[C@H](Cc1c[nH]c2ccccc12)NC(=O)[C@H](CCC(N)=O)NC(=O)[C@@H](Cc1ccccc1)NC(=O)CN1CCC(NC(=O)[C@H](CCCNC(=N)N)NC(=O)[C@H](CCCNC(=N)N)NC(=O)CCC(C(=O)O)N2CCN(CC(=O)O)CCN(CC(=O)O)CCN(CC(=O)O)CC2)CC1)C(C)C)C(N)=O (stereo partly drawn) [[^111In]In-AU-RM26-M4, metal not drawn] ({DOTAGA}-RR[X1][dF]QWAV[Sar]H[Sta]L-NH2)	0.6
CC(C)C[C@H](NC(=O)C[C@H](O)[C@H](CC(C)C)NC(=O)[C@H](Cc1c[nH]cn1)NC(=O)CN(C)C(=O)[C@@H](NC(=O)[C@H](C)NC(=O)[C@H](Cc1c[nH]c2ccccc12)NC(=O)[C@H](CCC(N)=O)NC(=O)[C@@H](Cc1ccccc1)NC(=O)[C@H](CCCNC(=N)N)NC(=O)COCCOCCNC(=O)CCC(C(=O)O)N1CCN(CC(=O)O)CCN(CC(=O)O)CCN(CC(=O)O)CC1)C(C)C)C(N)=O (stereo partly shown) [[^111In]In-AU-RM26-M3, metal not drawn]	0.17
CC(C)C[C@H](NC(=O)C[C@H](O)[C@H](CC(C)C)NC(=O)[C@H](Cc1c[nH]cn1)NC(=O)CN(C)C(=O)[C@@H](NC(=O)[C@H](C)NC(=O)[C@H](Cc1c[nH]c2ccccc12)NC(=O)[C@H](CCC(N)=O)NC(=O)[C@@H](Cc1ccccc1)NC(=O)COCCOCCNC(=O)CCC(C(=O)O)N1CCN(CC(=O)O)CCN(CC(=O)O)CCN(CC(=O)O)CC1)C(C)C)C(N)=O (stereo partly shown) [[^111In]In-AU-RM26-M1, [^111In]In-DOTAGA-PEG2-[Sar^11]RM26, metal not drawn, reference compound]	0.2

// switching to the query compound
Query: Output tissue uptake at 4 h of CC(C)C[C@H](NC(=O)C[C@H](O)[C@H](CC(C)C)NC(=O)[C@H](Cc1c[nH]cn1)NC(=O)CN(C)C(=O)[C@@H](NC(=O)[C@H](C)NC(=O)[C@H](Cc1c[nH]c2ccccc12)NC(=O)[C@H](CCC(N)=O)NC(=O)[C@@H](Cc1ccccc1)NC(=O)CN1CCC(NC(=O)COCCOCCNC(=O)CCC(C(=O)O)N2CCN(CC(=O)O)CCN(CC(=O)O)CCN(CC(=O)O)CC2)CC1)C(C)C)C(N)=O (stereo partly shown) [[^111In]In-AU-RM26-M2, metal not drawn]
Response: 0.12

----------
The entries below come with measured tissue uptake at 4 h values attached.
Test: in vivo
Set-up: species or system BALB/C nu/nu mice
Settings: BALB/C nu/nu, mouse, iv, 40 pmol, total radioactivity, Pancreas uptake
Starred links: 1 amine or outer side, 2 acyl side, 3 side chain; linkers in the order of their positions; H or OH if unused. Non-standard residues stand in square brackets, D forms with d. Residues, ends and D or L forms follow the SMILES beside them. *: point of attachment. DOTAGA = O=C(O)CN1CCN(CC(=O)O)CCN(C(CCC(=O)*)C(=O)O)CCN(CC(=O)O)CC1; Sta = CC(C)C[C@H](N)[C@@H](O)CC(=O)O; X1 = O=C(CN1CCC(N[*:1])CC1)[*:2]; Sar = CNCC(=O)O
Supply the numeric figure in %ID/g, leaving out any unit text.

In the examples that follow, each entry is paired with its recorded tissue uptake at 4 h.
molecule	numeric-value
CC(C)C[C@H](NC(=O)C[C@H](O)[C@H](CC(C)C)NC(=O)[C@H](Cc1c[nH]cn1)NC(=O)CN(C)C(=O)[C@@H](NC(=O)[C@H](C)NC(=O)[C@H](Cc1c[nH]c2ccccc12)NC(=O)[C@H](CCC(N)=O)NC(=O)[C@@H](Cc1ccccc1)NC(=O)COCCOCCNC(=O)CCC(C(=O)O)N1CCN(CC(=O)O)CCN(CC(=O)O)CCN(CC(=O)O)CC1)C(C)C)C(N)=O (stereo partly shown) [[^111In]In-AU-RM26-M1, [^111In]In-DOTAGA-PEG2-[Sar^11]RM26, metal not drawn, reference compound]	0.2
CC(C)C[C@H](NC(=O)C[C@H](O)[C@H](CC(C)C)NC(=O)[C@H](Cc1c[nH]cn1)NC(=O)CN(C)C(=O)[C@@H](NC(=O)[C@H](C)NC(=O)[C@H](Cc1c[nH]c2ccccc12)NC(=O)[C@H](CCC(N)=O)NC(=O)[C@@H](Cc1ccccc1)NC(=O)CN1CCC(NC(=O)COCCOCCNC(=O)CCC(C(=O)O)N2CCN(CC(=O)O)CCN(CC(=O)O)CCN(CC(=O)O)CC2)CC1)C(C)C)C(N)=O (stereo partly shown) [[^111In]In-AU-RM26-M2, metal not drawn]	0.37
CC(C)C[C@H](NC(=O)C[C@H](O)[C@H](CC(C)C)NC(=O)[C@H](Cc1c[nH]cn1)NC(=O)CN(C)C(=O)[C@@H](NC(=O)[C@H](C)NC(=O)[C@H](Cc1c[nH]c2ccccc12)NC(=O)[C@H](CCC(N)=O)NC(=O)[C@@H](Cc1ccccc1)NC(=O)[C@H](CCCNC(=N)N)NC(=O)COCCOCCNC(=O)CCC(C(=O)O)N1CCN(CC(=O)O)CCN(CC(=O)O)CCN(CC(=O)O)CC1)C(C)C)C(N)=O (stereo partly shown) [[^111In]In-AU-RM26-M3, metal not drawn]	0.06

Query: Output tissue uptake at 4 h of CC(C)C[C@H](NC(=O)C[C@H](O)[C@H](CC(C)C)NC(=O)[C@H](Cc1c[nH]cn1)NC(=O)CN(C)C(=O)[C@@H](NC(=O)[C@H](C)NC(=O)[C@H](Cc1c[nH]c2ccccc12)NC(=O)[C@H](CCC(N)=O)NC(=O)[C@@H](Cc1ccccc1)NC(=O)CN1CCC(NC(=O)[C@H](CCCNC(=N)N)NC(=O)[C@H](CCCNC(=N)N)NC(=O)CCC(C(=O)O)N2CCN(CC(=O)O)CCN(CC(=O)O)CCN(CC(=O)O)CC2)CC1)C(C)C)C(N)=O (stereo partly drawn) [[^111In]In-AU-RM26-M4, metal not drawn] ({DOTAGA}-RR[X1][dF]QWAV[Sar]H[Sta]L-NH2)
Response: 3.4

----------
Assay: in vivo
Set-up: species or system BALB/C nu/nu mice
Conditions: BALB/C nu/nu, mouse, iv, 40 pmol, total radioactivity, Lungs uptake
measured-attribute: tissue uptake at 4 h (%ID/g)
Supply the numeric figure in %ID/g, leaving out any unit text.

Query: Output tissue uptake at 4 h of CC(C)C[C@H](NC(=O)C[C@H](O)[C@H](CC(C)C)NC(=O)[C@H](Cc1c[nH]cn1)NC(=O)CN(C)C(=O)[C@@H](NC(=O)[C@H](C)NC(=O)[C@H](Cc1c[nH]c2ccccc12)NC(=O)[C@H](CCC(N)=O)NC(=O)[C@@H](Cc1ccccc1)NC(=O)COCCOCCNC(=O)CCC(C(=O)O)N1CCN(CC(=O)O)CCN(CC(=O)O)CCN(CC(=O)O)CC1)C(C)C)C(N)=O (stereo partly shown) [[^111In]In-AU-RM26-M1, [^111In]In-DOTAGA-PEG2-[Sar^11]RM26, metal not drawn, reference compound]
Response: 0.08
